Recorded values, source the NIST ThermoML archive (doi:10.1021/je100377k).

# condition_parameters: 323.15 K; 101.33 kPa; Liquid
readout: mass density (kg/m3)
Field: numeric (kg/m3). Do not append units.

Reference set, count: 4
compound	readout	measurement
CCCC[n+]1ccccc1.O=S(=O)([N-]S(=O)(=O)C(F)(F)F)C(F)(F)F [1-butylpyridinium bis[(trifluoromethyl)sulfonyl]imide]	mass density	1425.4
CCCC[n+]1ccc(C)cc1.O=S(=O)([N-]S(=O)(=O)C(F)(F)F)C(F)(F)F	mass density	1389
CCCC[n+]1cccc(C)c1.O=S(=O)([N-]S(=O)(=O)C(F)(F)F)C(F)(F)F	mass density	1389.9
CCCCCC[n+]1ccccc1.O=S(=O)([N-]S(=O)(=O)C(F)(F)F)C(F)(F)F [1-hexylpyridinium bis(trifluromethylsulfonyl)imide]	mass density	1371.8

Problem: Please indicate mass density recorded for CCCCCCCC[n+]1cccc(C)c1
Result: 1308

Problem: Please indicate mass density recorded for CCC[n+]1cccc(C)c1.O=S(=O)([N-]S(=O)(=O)C(F)(F)F)C(F)(F)F
Result: 1424.1
